Assignment: determine reported IC50 for the given compounds.
Calls of active or inactive are those of the source.

Give IC50 for O=C(Oc1ccc(-c2ccccc2)cc1)c1cccc2c1NC(C(=O)O)C1CC=CC21 (stereo unspecified) tested on Glyceraldehyde-3-phosphate dehydrogenase (Homo sapiens, UniProt P04406).
Sequence (P04406 whole entry): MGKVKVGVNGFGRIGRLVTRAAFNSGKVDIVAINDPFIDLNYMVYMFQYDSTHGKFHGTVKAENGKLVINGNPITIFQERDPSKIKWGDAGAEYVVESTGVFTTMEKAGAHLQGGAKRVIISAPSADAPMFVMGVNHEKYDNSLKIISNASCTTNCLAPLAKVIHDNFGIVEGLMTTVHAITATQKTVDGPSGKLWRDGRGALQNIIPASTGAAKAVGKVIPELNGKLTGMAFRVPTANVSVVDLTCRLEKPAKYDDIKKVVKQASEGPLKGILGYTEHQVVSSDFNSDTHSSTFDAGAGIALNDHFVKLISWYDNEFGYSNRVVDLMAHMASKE
> 100 µM (not active)

GET IC50 where system = Glyceraldehyde-3-phosphate dehydrogenase (Homo sapiens, UniProt P04406) and item = `c1cncc(-c2nnn[nH]2)c1`
> 100 µM (not active)

Find the measured IC50 of CCOC(=O)C1Nc2c(O)cc(C)cc2C2C=CCC12 (stereo unspecified) with Glyceraldehyde-3-phosphate dehydrogenase (Homo sapiens, UniProt P04406) as test system.
> 100 µM (not active)

Quote IC50 with test system Glyceraldehyde-3-phosphate dehydrogenase (Homo sapiens, UniProt P04406) for `CCOc1ccc(C(C)C)cc1S(=O)(=O)Nc1cccnc1`
> 100 µM (not active)

Give IC50 for this entry on Glyceraldehyde-3-phosphate dehydrogenase (Homo sapiens, UniProt P04406): `O=C(CSc1nnc2scc(-c3ccccc3)n12)Nc1nsc(-c2ccccc2)n1`
27.4 µM (active)

Recall the reported IC50 of `CCCc1nn(C(C)=O)c2c1C(=O)CC(C)(C)C2` when tested on Glyceraldehyde-3-phosphate dehydrogenase (Homo sapiens, UniProt P04406).
> 100 µM (not active)

---

assay-system: Trace amine-associated receptor 1 (Homo sapiens)
Sequence (Q96RJ0 whole entry): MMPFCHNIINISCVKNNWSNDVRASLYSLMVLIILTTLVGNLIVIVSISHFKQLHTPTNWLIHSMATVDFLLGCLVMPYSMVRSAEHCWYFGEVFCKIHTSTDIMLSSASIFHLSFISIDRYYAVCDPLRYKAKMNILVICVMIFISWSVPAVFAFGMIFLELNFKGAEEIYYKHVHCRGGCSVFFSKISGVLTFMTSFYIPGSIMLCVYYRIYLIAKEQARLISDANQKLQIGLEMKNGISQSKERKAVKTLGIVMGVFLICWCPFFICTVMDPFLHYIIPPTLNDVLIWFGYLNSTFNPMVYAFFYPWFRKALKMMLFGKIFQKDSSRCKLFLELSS
experiment-summary: Fluorescence-based cell-based high throughput dose response assay to identify agonists of the human trace amine associated receptor 1 (TAAR1).
Assay type: functional
Calls of active or inactive are those of the source.
Could you please pick one outcome from this set? YES for active, NO for inactive

Any idea what this test logged for `CCOC(=O)[C@]12CCCC=C1N(Cc1ccc3c(c1)OCO3)C(=O)[C@H](CC(=O)NCCc1ccccc1OC)C2` ?
YES

Hi team, can someone confirm the assay call for `Oc1ccc(/C=N/Nc2ccnc3cc(Cl)ccc23)cc1O` ?
YES

State the result this test recorded for `CCn1cc(C(=O)O)c(=O)c2cc(F)c(N/N=C/c3ccccc3)cc21` .
NO

Given `N=C(N)N/N=C/c1c(Cl)cccc1Cl` , state the outcome it received in this test.
YES

# outcome recorded in this test, key = `OCCNc1nc(Nc2cccc(O)c2)nc2ccccc12`
YES

---

assay-system: Protein RecA (Mycobacterium tuberculosis, UniProt P9WHJ3)
experiment-summary: Fluorescence Cell-Free Homogeneous Dose Retest to Identify Inhibitors of RecA-Intein Splicing Activity. [Related pubchem assays (depositor defined):AID2097, AID2223, AID489010, AID492950]
Type: functional
Calls of active or inactive are those of the source.
Result category, one only: T (active), F (inactive)

Given `Cc1ccc(NC(=O)c2cc(NC(=O)/C=C\C(=O)O)ccc2N2CCCCC2)cc1` , state the outcome it received in this test.
T

# outcome recorded in this test, key = `O=C(CCN1C(=O)/C(=C/c2cccs2)SC1=S)Nc1cccc(O)c1`
T

How was `COC(=O)c1ccccc1Sc1ncnc2onc(C)c12` classified in this test?
T

Tell me the assay call for `O=C(OCn1ncc(Br)c(Br)c1=O)c1ccc(F)cc1` please.
T

What is the recorded call for this compound in the test? `COc1ccc(-n2c(=O)c3ccccc3c3ccccc3c2=O)cc1`
T

Recorded test call requested for O=C(NC1CCCC1)C(c1ccc(F)cc1)N(Cc1ccc(F)cc1)C(=O)CCl (stereo not given)
T

Would you mind telling me which call this test gave `COc1ccc(C2=NN(c3nc(C)cc(C)n3)C(=O)C2)cc1` ?
T

Check the results log: what was the call for `COC(=O)c1ccc(-c2ccc(C(c3c(C)[nH][nH]c3=O)c3c(C)[nH][nH]c3=O)o2)cc1` ?
T

Give the logged outcome of this assay for the following compound: `C[C@@H]1CC=C[C@H]2[C@H]1C(=O)N(Cc1ccccc1)[C@H]2c1ccc(C(F)(F)F)cc1`
T

What is the recorded call for this compound in the test? `O=c1cc(C2CCNCC2)[nH][nH]1`
T

Could you please tell me the result logged for `COc1ccc2ccc3c(c2c1)N=C[C@]1(O3)N(C)c2ccccc2C1(C)C` in this assay?
T

Please share the test call associated with CC(C)C[C@H]1C(=O)N2CCC[C@H]2[C@]2(O)O[C@](NC(=O)[C@@H]3C=C4c5cccc6[nH]c(Br)c(c56)CC4N(C)C3)(C(C)C)C(=O)N12 (stereo not given in full) .
F

Query: recorded result category for `COc1cc(OC)cc(-c2nnc(Sc3ccc(C=O)cc3[N+](=O)[O-])o2)c1` in this test
T

Please state the recorded outcome for this compound: `CC1=NN(c2cccc(Cl)c2)C(=O)C1`
T

What classification did CCC(CNc1cc(OC)cc2cccnc12)NC1CCCCC1 (stereo not given) end up with in this test?
T

Recorded call for `CCN(CC)CCNC(=O)CSc1c2c(nc3cc(Cl)ccc13)CCCC2` ?
T

Per the assay record, what outcome was assigned to `CS(=O)(=O)c1ncc(Cl)c(C(=O)Nc2ccc(OC(F)F)cc2)n1` ?
T

How did this test come out for Cc1n[nH]c2c1C(CCc1ccccc1)C(C#N)=C(N)O2 (stereo not given) ?
T

State the result this test recorded for `Cc1[nH]n(C)c(=O)c1C(=O)c1c(-c2ccccc2Cl)noc1C` .
T

Which result was noted for this compound in the test: `COc1cccc(C(c2c(C)nn(-c3ccccc3)c2O)c2c(C)nn(-c3ccccc3)c2O)c1OC`
T
